Recorded pIC50, one value per entry.
- Test system: full-length beta-Catenin (Uniprot ID P35222) (Homo sapiens, UniProt P35222)
- Construct: 10 nM full-length beta-Catenin (Uniprot ID P35222)
- Sequence (P35222 1-781): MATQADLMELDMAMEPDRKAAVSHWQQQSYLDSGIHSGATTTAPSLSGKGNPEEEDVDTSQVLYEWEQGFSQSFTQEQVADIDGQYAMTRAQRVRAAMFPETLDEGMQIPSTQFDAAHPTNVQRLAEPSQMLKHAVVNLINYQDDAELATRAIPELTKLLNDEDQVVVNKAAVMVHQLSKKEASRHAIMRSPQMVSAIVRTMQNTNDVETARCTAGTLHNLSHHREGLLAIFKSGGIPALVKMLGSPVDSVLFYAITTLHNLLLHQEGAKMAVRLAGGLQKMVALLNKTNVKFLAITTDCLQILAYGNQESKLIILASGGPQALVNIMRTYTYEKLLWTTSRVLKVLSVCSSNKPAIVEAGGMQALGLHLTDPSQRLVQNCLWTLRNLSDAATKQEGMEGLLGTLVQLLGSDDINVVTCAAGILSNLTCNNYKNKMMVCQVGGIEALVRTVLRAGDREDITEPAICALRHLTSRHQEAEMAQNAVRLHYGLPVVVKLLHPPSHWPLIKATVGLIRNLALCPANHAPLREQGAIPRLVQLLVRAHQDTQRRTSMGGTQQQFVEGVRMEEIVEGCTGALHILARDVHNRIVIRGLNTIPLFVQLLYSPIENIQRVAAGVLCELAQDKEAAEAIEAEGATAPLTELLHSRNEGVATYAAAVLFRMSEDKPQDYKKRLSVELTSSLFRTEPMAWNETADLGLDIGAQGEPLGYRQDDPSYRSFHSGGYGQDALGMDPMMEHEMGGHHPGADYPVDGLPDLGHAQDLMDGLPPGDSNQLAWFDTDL
- Measurement protocol: Fluorescence polarization IC50 (beta-catenin / 5FAM-TCF4 10-53 competition)
- Format: binding
- Condition parameters: fluorescence polarization, beta-catenin; read-out: FP EC50
pIC50: −log10 of the molar value.

Compound	Test system	pIC50
CC(=O)N1CCC[C@]12CC=CCCCC1(CCCC=CCCCCCC[C@@](C)(C(=O)N[C@@H](Cc3cccc(F)c3)C(=O)N[C@@H](Cc3csc4ccccc34)C(=O)N[C@@H](CCC(N)=O)C(N)=O)NC(=O)[C@H](C(C)C)NC(=O)[C@H](Cc3ccccc3)NC(=O)[C@H](C)NC(=O)[C@H](C)NC(=O)[C@H](Cc3c[nH]cn3)NC(=O)[C@H](CC(=O)O)NC1=O)NC(=O)[C@H](C)NC(=O)[C@H](CC(=O)O)NC2=O (some centres unmarked) [I-396]	full-length beta-Catenin (Uniprot ID P35222) (Homo sapiens, UniProt P35222)	5.47
CC(=O)N1CCC[C@]12CC=CCCCC1(CCCC=CCCCCCC[C@@](C)(C(=O)N[C@@H](Cc3ccsc3)C(=O)N[C@@H](Cc3csc4ccccc34)C(=O)N[C@@H](CCC(N)=O)C(N)=O)NC(=O)[C@H](CC(N)=O)NC(=O)[C@H](Cc3ccccc3)NC(=O)[C@H](C)NC(=O)[C@H](C)NC(=O)[C@H](CC(=O)O)NC(=O)[C@H](CC(=O)O)NC1=O)NC(=O)[C@H](CC(C)(C)C)NC(=O)C[C@H](CC(=O)O)NC2=O (some centres unmarked) [I-1163]	full-length beta-Catenin (Uniprot ID P35222) (Homo sapiens, UniProt P35222)	6.16
